assay_text: self-splicing fitness, log relative to wild type (ln ratio); higher = more splicing; Tetrahymena group I intron in knt gene, E. coli kanamycin selection, DiMSum; sequences stand for … in CUCUCU…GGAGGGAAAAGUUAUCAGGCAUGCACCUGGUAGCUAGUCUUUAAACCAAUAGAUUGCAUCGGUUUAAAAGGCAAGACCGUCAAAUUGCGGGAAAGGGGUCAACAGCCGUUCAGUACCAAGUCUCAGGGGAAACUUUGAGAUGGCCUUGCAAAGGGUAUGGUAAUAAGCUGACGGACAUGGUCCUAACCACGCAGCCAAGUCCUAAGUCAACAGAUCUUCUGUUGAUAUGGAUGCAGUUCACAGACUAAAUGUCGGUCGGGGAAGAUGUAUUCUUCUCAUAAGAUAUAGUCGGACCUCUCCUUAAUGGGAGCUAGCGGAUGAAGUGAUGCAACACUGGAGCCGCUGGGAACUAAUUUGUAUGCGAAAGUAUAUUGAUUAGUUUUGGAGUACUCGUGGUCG;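 note: selection with 25 µg/mL kanamycin versus none on LB agar overnight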
test_parameters: 30 °C
Would you mind telling me the reported self-splicing fitness (ln) of each entry?

{"columns": ["residues", "test_readout", "observed_result"],
 "data": [
  ["ACAGAGCAAUAUUACGCAUG", "self-splicing fitness (ln)", -2.9],
  ["UCAUAGCAAUAUUACGAAAA", "self-splicing fitness (ln)", -2.62],
  ["GUGAAGCAAUAUUACGACGC", "self-splicing fitness (ln)", 0.482],
  ["GCAAAGCAAUAUUACGAACG", "self-splicing fitness (ln)", -1.46],
  ["UUGCAGCAAUAUUACGCACG", "self-splicing fitness (ln)", -1.2],
  ["CUGGAGCAAUAUUACGGUAG", "self-splicing fitness (ln)", -2.51],
  ["AAAAAGCAAUAUUACGGCUU", "self-splicing fitness (ln)", -0.00557],
  ["UAGAAGCAAUAUUACGAAUA", "self-splicing fitness (ln)", -1.14],
  ["UCCGAGCAAUAUUACGUGGA", "self-splicing fitness (ln)", -2.47],
  ["UAUAAGCAAUAUUACGCGGG", "self-splicing fitness (ln)", -2.17]
]}

List reported self-splicing fitness (ln) for each of these sequences:
1. GGGAAGCAAUAUUACGUCCG
2. CCAAAGCAAUAUUACGAACC
3. GGGCAGCAAUAUUACGUCGA
4. GUGUAGCAAUAUUACGGACU
5. UUUUAGCAAUAUUACGAACG
6. GAGCAGCAAUAUUACGGCUA
7. AUGCAGCAAUAUUACGUAAU

## Output
[-1.81, -3.78, -0.0821, -0.979, -0.665, -0.634, -0.641]
